FYI, the data here is from patent US20260116991A1.

target: T1, human GPC3-His protein (human, UniProt P51654 25-559); test: ELISA, coated human GPC3, antibody 0.1 nM;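 also: antigen coated on 96-well plates at 1 µg/mL, antibody bound 2 h at 37 °C, detected with HRP-labeled secondary antibody and TMB substrate, acid-stopped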
T1 construct: Bought protein; also called human GPC3 protein; not shown: His tag
Catalogue of OD450 nm readings, one per entry.
Just the number in OD450, nothing appended.

Use these answered entries as a reference point.
{"columns": ["binder", "parameter", "quantitative readout"],
 "data": [
  ["F2.152.3 human-murine chimeric antibody (antibody, human IgG1, kappa, V domains shown) VH: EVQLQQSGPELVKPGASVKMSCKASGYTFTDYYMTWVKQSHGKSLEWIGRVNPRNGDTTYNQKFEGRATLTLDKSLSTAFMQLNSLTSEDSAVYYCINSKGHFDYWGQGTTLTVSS VL: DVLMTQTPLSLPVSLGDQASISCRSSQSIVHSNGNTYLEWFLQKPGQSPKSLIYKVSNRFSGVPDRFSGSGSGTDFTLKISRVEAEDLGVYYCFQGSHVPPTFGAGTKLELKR", "OD450 nm", 1.45],
  ["F1.3.9 human-murine chimeric antibody (antibody, human IgG1, kappa, V domains shown) VH: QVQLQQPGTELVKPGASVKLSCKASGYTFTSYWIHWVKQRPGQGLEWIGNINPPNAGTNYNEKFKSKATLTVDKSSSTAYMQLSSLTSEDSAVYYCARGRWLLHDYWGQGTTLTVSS VL: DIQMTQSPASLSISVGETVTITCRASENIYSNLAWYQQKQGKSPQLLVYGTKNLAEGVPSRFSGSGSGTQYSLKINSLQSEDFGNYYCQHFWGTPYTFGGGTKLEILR", "OD450 nm", 0.92]
]}

Could you now consider this next binder?
Query: Would you mind telling me what OD450 nm value was observed for F2.169.2 human-murine chimeric antibody (antibody, human IgG1, kappa, V domains shown) VH: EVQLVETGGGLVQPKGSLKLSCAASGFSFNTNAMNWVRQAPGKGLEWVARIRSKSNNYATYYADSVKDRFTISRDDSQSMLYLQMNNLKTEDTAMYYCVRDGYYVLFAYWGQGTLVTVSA VL: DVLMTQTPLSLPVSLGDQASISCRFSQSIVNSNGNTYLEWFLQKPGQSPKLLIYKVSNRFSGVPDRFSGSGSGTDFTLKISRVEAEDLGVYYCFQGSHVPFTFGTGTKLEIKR ?
Result: 1.25
